Reported normalized growth by item:
Test: chemical genetic growth profiling, strain panel (AID 1159580);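 further: tested at 20 µM; growth read once vehicle control cultures reached saturation at 30 °C; 1 = growth at the plate median or of vehicle wells; lower values mean less growth of the strain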
Conditions: S. cerevisiae deletion strains, growth OD, locus YMR277W, strain FCP1, active compounds read low
Screen size: about 5,500 compounds; about 2,000 (36%) were called active. Not shown: some 18% with an inconclusive outcome. The list shows a part of the results.
Note: the reply should be a number with no unit written.

INSERT INTO assay_data (molecule, property_measured, test_result) VALUES
  ('N#CC(C#N)=NNc1ccc(C(F)(F)F)cc1', 'normalized growth', 0.119),
  ('CCOC(=O)C1C(c2ccc(Br)cc2)C(C(=O)OCC)C(O)(C(F)(F)F)NC1(O)C(F)(F)F (stereo not given)', 'normalized growth', 0.996);

Form: molecule = CC(NC(=S)Nc1ccc(Oc2ccc(Cl)cc2)cc1)c1ccccc1 (stereo not given) ; normalized growth = 0.96

Query Cc1c(Cl)cccc1N=C1SCC(=O)N1Cc1ccco1 yields normalized growth of 0.969

Notebook: Cc1c(NCN2C(=O)CCC2=O)cc2c(c1[N+](=O)[O-])C(C)(C)CC2(C)C , normalized growth read as 0.96

Short answer for Cc1nn(Cc2cccc(C(=O)O/N=C(/N)c3ccc(Cl)cc3)c2)c(C)c1Br : normalized growth was 0.973

====

normalized growth values, listed per item
Assay: chemical genetic growth profiling, strain panel (AID 1159580)
Settings: S. cerevisiae deletion strains, growth OD, locus YPL256C, strain CLN2, active compounds read low
The campaign covered roughly 5,500 compounds. About 2,000 (36%) were called active. Not shown: some 18% with an inconclusive outcome. The list shows a part of the results.

COc1cc(OC)c2c(c1Cl)OC1(C2=O)C(O)=CC(=O)CC1C (stereo not given) has a reported normalized growth of 0.979 (inactive)

The measured normalized growth associated with CC(=O)c1ccc2c(c1)N(CCCN(C)C)c1ccccc1S2 reads 0.954 (inactive)

# compound COc1ccc(Cc2nccc3cc(OC)c(OC)cc23)cc1OC ; its normalized growth = 1.02 (inactive)

normalized growth measured on CC(=O)OC1CCC23C(=O)OC45CCC(C6=CC(=O)OC6)C4(C)CCC2C5CCC3(O)C1 (stereo not given) = 0.975 (inactive)

Memo: CN1Cc2c(N)cccc2C(c2ccccc2)C1 (stereo not given) , reported normalized growth: 0.974 (inactive)

Lab note: N#Cc1ccc2c(c1)N(CCCN1CCC(O)CC1)c1ccccc1S2 gave normalized growth of 1.07 (inactive)

Field normalized growth (entry CCS(=O)(=O)CCn1c([N+](=O)[O-])cnc1C ) reads 0.973 (inactive)

According to the records, this compound CC(C)(O)CC[C@@H](O)[C@](C)(O)C1CC[C@@]2(O)C3=CC(=O)C4C[C@@H](O)[C@@H](O)C[C@]4(C)C3CC[C@]12C (stereo not given in full) displays normalized growth of 0.996 (inactive)

The compound listed as O=C(N/N=C\c1cc(Cl)cc(Cl)c1O)c1ccccc1Oc1ccccc1 shows normalized growth equal to 0.818 (active)

Quick note, normalized growth for OCCN1CCN(CCCN2c3ccccc3Sc3ccc(Cl)cc32)CC1 landed at 1.01 (inactive)

====

Experiment: chemical genetic growth profiling, strain panel (AID 1159580)
Settings: S. cerevisiae deletion strains, growth OD, locus YFR003C, strain YPI1, active compounds read low
About 2,000 (36%) of roughly 5,500 compounds were called active. Not shown: some 18% with an inconclusive outcome. The list shows a part of the results.
Below: a set of entries, each annotated with reported normalized growth.
Number only, no unit.

normalized growth reported for this molecule Cc1oc(-c2ccc(Cl)cc2)cc1C(=O)N1CCN(c2ccc(C(F)(F)F)cn2)CC1 : 0.974

Lab note: CCCCCc1ccc(-c2nc(SCC(C)=O)n[nH]2)cc1 gave normalized growth of 0.96

Lab book: normalized growth of Nc1ccc(N2CCN(c3ccc(C(F)(F)F)cn3)CC2)nc1 noted as 0.981

normalized growth for N#CC(C#N)=NNc1cc(C(F)(F)F)ccc1OCC(F)(F)F is 0.975

Entry COc1cccc(C(=O)C(C#N)=C(SC)SC)c1 ; normalized growth = 0.88

Just so you know, measured normalized growth for FC(F)(F)c1ccc(NC(=S)Nc2ccc(C(F)(F)F)cc2Cl)c(Cl)c1 came out at 0.955

====

Test: chemical genetic growth profiling, strain panel (AID 1159580);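 further: tested at 20 µM; growth read once vehicle control cultures reached saturation at 30 °C; 1 = growth at the plate median or of vehicle wells; lower values mean less growth of the strain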
Details: S. cerevisiae deletion strains, growth OD, locus YFR019W, strain FAB1, active compounds read low
The whole screen tested about 5,500 compounds, of which about 2,000 (36%) were called active. Another 18% or so got no clear call; they are omitted. Some of the results follow.
Measured normalized growth of individual entries
// keep it numeric: no unit symbol after the value

INSERT INTO assay_data (compound, property_measured, test_result) VALUES
  ('CN(C)c1nc(=S)ss1', 'normalized growth', 0.221),
  ('O=C1CSC(=Nc2cc(Cl)cc(Cl)c2)N1Cc1cccnc1', 'normalized growth', 0.944),
  ('CN(NC(=S)Nc1cc(Cl)ccc1Cl)c1ccc(C(F)(F)F)cc1[N+](=O)[O-]', 'normalized growth', 0.977),
  ('COC(=O)c1ccc(Oc2c(C(F)(F)F)oc3cc(O)ccc3c2=O)cc1', 'normalized growth', 0.938),
  ('O=C(NCc1ccc(F)c(Cl)c1)Nc1csc([N+](=O)[O-])c1', 'normalized growth', 0.951),
  ('CC(=O)Oc1ccc2c(=O)c(Oc3ccc(Cl)cc3)c(C)oc2c1', 'normalized growth', 0.979),
  ('O=C(Nc1ccc(Cl)cc1)c1csc([N+](=O)[O-])c1', 'normalized growth', 0.918),
  ('O=C(O)c1cccc2cccc(C(=O)O)c12', 'normalized growth', 0.0952),
  ('CCCCc1ccc(N=CNO)c(C)c1', 'normalized growth', 0.255),
  ('Cc1c(Cl)cccc1N=C1SCC(=O)N1Cc1ccco1', 'normalized growth', 0.918);

Quick note, normalized growth for Cc1c(C(=O)NCCNc2ccc(C(F)(F)F)cc2[N+](=O)[O-])cnn1-c1ccc(F)cc1 landed at 0.973

====

Experiment: chemical genetic growth profiling, strain panel (AID 1159580);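 further: tested at 20 µM; growth read once vehicle control cultures reached saturation at 30 °C; 1 = growth at the plate median or of vehicle wells; lower values mean less growth of the strain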
Settings: S. cerevisiae deletion strains, growth OD, locus YER110C, active compounds read low
Screen size: about 5,500 compounds; about 2,000 (36%) were called active. Not shown: some 18% with an inconclusive outcome. Some of the results follow.
property.measured: normalized growth
I only need the number, thanks.

These solved cases illustrate the format of a correct answer.
INSERT INTO results (molecule, property_measured, test_result) VALUES
  ('CCCCC/C=C\C/C=C\C/C=C\C/C=C\CCCC(=O)O', 'normalized growth', 0.976),
  ('N#C/C(=C\c1ccc(O)cc1)C(=O)O', 'normalized growth', 0.999),
  ('CC(=O)OC1CCC23C(=O)OC45CCC(C6=CC(=O)OC6)C4(C)CCC2C5CCC3(O)C1 (configuration not stated)', 'normalized growth', 0.997),
  ('Cc1cc(C)nc(NS(=O)(=O)c2ccc(N)cc2)n1', 'normalized growth', 0.99),
  ('CC1(C)C=Cc2c(cc3occ(-c4ccc5c(c4)OCO5)c(=O)c3c2O)O1', 'normalized growth', 1.04),
  ('COc1cc(OC)c2c(c1Cl)OC1(C2=O)C(O)=CC(=O)CC1C (configuration not stated)', 'normalized growth', 0.977),
  ('COc1ccc2[nH]cc(CCNC(C)=O)c2c1', 'normalized growth', 1.02),
  ('COc1cc(O)c(C(=O)c2ccccc2)c(OC)c1', 'normalized growth', 0.994),
  ('Nc1ncnc2c1ncn2[C@@H]1O[C@H](CO)[C@@H](O)[C@@H]1O', 'normalized growth', 1.04),
  ('CC(C)=CCc1c(O)cc2occ(-c3ccc4c(c3)OCO4)c(=O)c2c1O', 'normalized growth', 1.05);

Please fill in: normalized growth reported for CC(C)=CCC1=C(O)c2ccccc2C(=O)C1=O = 0.96

# normalized growth (molecule: COc1cc2ccc(=O)oc2c2ccoc12 ) is 0.975

For reference, reported normalized growth for O=c1[nH]cnc2nc[nH]c12 stands at 0.969

====

Experiment: chemical genetic growth profiling, strain panel (AID 1159580);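 further: tested at 20 µM; growth read once vehicle control cultures reached saturation at 30 °C; 1 = growth at the plate median or of vehicle wells; lower values mean less growth of the strain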
Details: S. cerevisiae deletion strains, growth OD, locus YNL071W, strain lat1
Among all 5,500 compounds or so, about 2,000 (36%) were called active. About 18% were inconclusive and are not listed. Rule as the data show it: active = normalized growth mostly below about 0.91 (no sharp cut-off); inconclusive = no clear call, values can overlap the other calls; inactive = mostly above about 0.92. The list shows a part of the results.
Returns: one label drawn from active, inactive

Below are worked cases with known answers.
INSERT INTO measurements (compound, label_class) VALUES
  ('CN(C)c1nc(N(C)C)nc(N(C)C)n1', 'inactive'),
  ('CCCCC/C=C\C/C=C\C/C=C\C/C=C\CCCC(=O)O', 'active'),
  ('COc1cc(O)c(C)c(O)c1', 'inactive');

Inquiry: Test call, this compound: Cn1c(=O)[nH]c(=O)c2[nH]cnc21
Reply text: inactive

Inquiry: Hello, I am checking results. What call was entered for C=C(C)c1cc2cc(C(C)=O)c(O)cc2o1 ?
Reply text: active

Inquiry: I'd appreciate the recorded outcome for COc1cc(O)c(C(C)=O)c(OC)c1 from this test.
Reply text: inactive

Inquiry: State the result this test recorded for COC(=O)C1=CO[C@@H](O[C@@H]2O[C@H](CO)[C@@H](O)[C@H](O)[C@H]2O)[C@@H]2[C@@H](C)[C@@H](O)C[C@H]12 .
Reply text: inactive

Inquiry: Which outcome was assigned to CC(C(=O)O)c1ccc(N2Cc3ccccc3C2=O)cc1 (stereo unspecified) in this test?
Reply text: inactive

Inquiry: Please share the test call associated with COc1cc(OC)c(C(C)=O)c(O)c1C .
Reply text: inactive

Inquiry: Any idea what this test logged for CC(C)(O)CC[C@@H](O)[C@](C)(O)C1CC[C@@]2(O)C3=CC(=O)C4C[C@@H](O)[C@@H](O)C[C@]4(C)C3CC[C@]12C (stereo partly specified) ?
Reply text: inactive

Inquiry: Could you please tell me the result logged for C[N+]1(C)C2CC[C@H]1CC(OC(=O)C(O)c1ccccc1)C2 (stereo partly specified) in this assay?
Reply text: inactive
